Target: 1-phosphatidylinositol 4,5-bisphosphate phosphodiesterase gamma-2 (Homo sapiens) (UniProt P16885)
Sequence (P16885 whole entry): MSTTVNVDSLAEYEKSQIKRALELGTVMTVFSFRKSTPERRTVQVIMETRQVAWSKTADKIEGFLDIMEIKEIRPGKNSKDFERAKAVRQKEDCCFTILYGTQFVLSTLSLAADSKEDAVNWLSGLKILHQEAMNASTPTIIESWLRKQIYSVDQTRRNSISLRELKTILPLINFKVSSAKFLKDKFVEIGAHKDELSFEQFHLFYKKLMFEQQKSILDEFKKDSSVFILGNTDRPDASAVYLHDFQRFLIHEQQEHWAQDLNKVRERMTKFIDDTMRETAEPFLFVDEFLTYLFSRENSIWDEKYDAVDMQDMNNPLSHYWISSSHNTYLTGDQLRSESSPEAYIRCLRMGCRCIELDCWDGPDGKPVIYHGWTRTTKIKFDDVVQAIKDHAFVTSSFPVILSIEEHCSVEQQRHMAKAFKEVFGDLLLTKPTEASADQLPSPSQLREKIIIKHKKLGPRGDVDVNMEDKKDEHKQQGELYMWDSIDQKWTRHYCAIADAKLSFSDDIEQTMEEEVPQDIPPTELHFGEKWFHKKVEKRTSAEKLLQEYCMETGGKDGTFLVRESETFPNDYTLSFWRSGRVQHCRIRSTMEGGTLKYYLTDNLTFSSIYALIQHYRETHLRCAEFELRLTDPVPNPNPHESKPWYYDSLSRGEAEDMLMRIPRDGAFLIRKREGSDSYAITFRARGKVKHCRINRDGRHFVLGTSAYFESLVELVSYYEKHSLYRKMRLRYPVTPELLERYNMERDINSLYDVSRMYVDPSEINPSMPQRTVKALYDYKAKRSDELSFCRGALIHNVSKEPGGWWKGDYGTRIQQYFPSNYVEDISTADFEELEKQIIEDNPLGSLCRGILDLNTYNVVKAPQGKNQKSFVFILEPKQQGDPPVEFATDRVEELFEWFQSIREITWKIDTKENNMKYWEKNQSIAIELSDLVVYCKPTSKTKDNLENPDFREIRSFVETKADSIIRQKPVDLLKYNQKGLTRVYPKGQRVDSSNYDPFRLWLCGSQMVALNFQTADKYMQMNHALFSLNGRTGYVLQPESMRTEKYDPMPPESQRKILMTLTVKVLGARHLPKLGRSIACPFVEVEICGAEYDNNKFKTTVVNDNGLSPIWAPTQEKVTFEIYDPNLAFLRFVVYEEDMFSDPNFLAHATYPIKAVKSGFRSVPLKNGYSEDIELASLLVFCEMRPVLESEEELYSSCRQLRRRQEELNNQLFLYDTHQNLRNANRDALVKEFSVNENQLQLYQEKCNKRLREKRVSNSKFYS
Assay: Inhibition of phospholipase C gamma2 in human A431 cells assessed as reduction of calcium release after 45 mins by FLIPR assay
Type: cell-based
Settings: A-431
The source made the active and inactive calls. The rule behind the calls is not given here.

COMPOUND | GC50
O=C1C2Nc3ccc(Br)cc3C2N=CN1CCc1ccccc1 (stereo not drawn) | inactive
Cc1ccc(NC(=O)c2sc3nc4c(cc3c2N)C(=O)CCC4)cc1 | inactive
N#Cc1ccc(/C=C2/N=C(c3ccccc3)OC2=O)cc1 | inactive
O=C1C2Nc3ccc(Br)cc3C2N=CN1CCC1=CCCCC1 (stereo not drawn) | inactive
Cc1ccc2c(c1)N/C(=C\C(=O)c1ccc(Cl)cc1)C(=O)O2 | 22 µM
O=C(Nc1nc2ccccc2c(=O)s1)c1ccc(Cl)cc1 | inactive
O=C1NN(c2ccccc2)C(=O)/C1=C/c1coc2ccc(Cl)cc2c1=O | 18 µM
Cc1ccc(NC(=O)c2sc3nc4c(cc3c2N)C(=O)CCC4)cc1Cl | inactive
COc1ccc2[nH]c(C(=O)Nc3nc4ccccc4s3)cc2c1 | inactive
O=c1/c(=C/c2ccncc2)sc2n1CN(c1ccc(Cl)cc1)CN=2 | 15 µM
O=C(Nc1ccccc1)Nc1nnc(-c2cccs2)s1 | inactive
CCCc1nnc(NC(=O)c2cc([N+](=O)[O-])cc([N+](=O)[O-])c2)s1 | inactive
COc1ccc(-c2nnc(NC(=O)c3cccs3)s2)cc1 | inactive
Clc1cccc(-c2nc(-c3ccc(-c4ccon4)s3)no2)c1 | inactive
CCOc1ccc2c(c1)C1N=CN(Cc3ccccc3)C(=O)C1N2 (stereo not drawn) | inactive
COc1ccc(S(=O)(=O)n2ccc(-c3ccc4c(c3)CCC(C)(C)O4)n2)cc1 | 30 µM
O=C(NC(=O)c1ccccc1Cl)Nc1ccc2c(c1)S(=O)(=O)C=C2 | inactive
CCCOc1ccc(-c2nnc(NC(=O)c3cccs3)s2)cc1 | inactive
Nc1c(C(=O)Nc2cccc(Cl)c2)sc2nc3c(cc12)C(=O)CCC3 | inactive
O=C(Nc1ccc(Cl)cc1)c1cc2cccc([N+](=O)[O-])c2[nH]1 | inactive
O=C(Nc1ccc(S(=O)(=O)Nc2nccs2)cc1)c1cccs1 | inactive
O=C(NCCc1ccccc1)c1cc2cccc([N+](=O)[O-])c2[nH]1 | 15 µM
O=C1C2Nc3ccc(Br)cc3C2N=CN1CCc1ccc(F)cc1 (stereo not drawn) | inactive
